biological target: β2R (Homo sapiens, UniProt P07550, N187E, form not given); type: biochemical; conditions: 200μM solubilized lipid; 200μM isoproterenol
measurement type: modulation of β2R activation by solubilized phospholipid

line notation	observed result
CCCCCCCC/C=C\CCCCCCCC(=O)OC[C@H](COP(=O)(O)OCCN)OC(=O)CCCCCCC/C=C\CCCCCCCC	little or no effect
CCCCCCCC/C=C\CCCCCCCC(=O)OC[C@H](COP(=O)([O-])OCC[N+](C)(C)C)OC(=O)CCCCCCC/C=C\CCCCCCCC	little or no effect
